Each recorded value in this set is attributed to patent US20220251096A1.

System: SW780
Protocol summary: Cell growth inhibition assay, SW780
Assay type: cell-based
Experimental conditions: Homo sapiens, 168 h; SW780, 7 days
Readout type: IC50 (nM)

[A] CNC(=O)c1ccc(-c2cc3cccc(-c4nn(C)c5c4CN(C)C(=O)CC5)c3cn2)cn1
[B] CCNC(=O)c1ccc(-c2cc3cccc(-c4nn(C)c5c4CN(C)C(=O)CC5)c3cn2)cn1
Kindly compare A with B and tell me which has the lower IC50 figure. Use the label to indicate which entry you chose.
A

----------
Experimental target: CREBBP (Homo sapiens, UniProt Q92793)
Sequence (Q92793 1085-1192 limits assumed): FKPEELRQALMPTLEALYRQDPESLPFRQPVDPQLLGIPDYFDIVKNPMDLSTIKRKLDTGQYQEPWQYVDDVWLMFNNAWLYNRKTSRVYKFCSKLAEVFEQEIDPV
Protocol summary: BromoKdELECT platform assay, CREBBP
Experimental conditions: 11 points dose-response, mean from a duplicate experiment
pKd: −log10 of the molar value.
Readout type: pKd

[A] CNC(=O)c1ccc(-c2cc3cccc(-c4nn(C)c5c4CN(C)C(=O)CC5)c3cn2)cn1 [Example 1]
[B] CCNC(=O)c1ccc(-c2cc3cccc(-c4nn(C)c5c4CN(C)C(=O)CC5)c3cn2)cn1 [Example 2]
Which value of pKd is numerically greater: that of A or that of B ? Pick one; state its label.
B

----------
Test system: MOLM-16
Protocol summary: Cell growth inhibition assay, MOLM-16
Type: cell-based
Experimental conditions: MOLM16, 168 h; MOLM-16, 7 days
Readout type: pIC50
The read-out pIC50 is expressed as -log10 of concentration in moles per litre.

// pIC50 lookup, key: `CCNC(=O)c1ccc(-c2cc3cccc(-c4nn(C)c5c4CN(C)C(=O)CC5)c3cn2)cn1`
6.89

----------
Experimental target: hBRD4 (Homo sapiens, UniProt O60885)
Construct: NanLuc-BRD4 Full Length (Promega, 0.0002 μg)
Protocol summary: NanoBRET assay, BRD4 full length
Experimental conditions: NanoBRET in HEK293 cells, read after overnight incubation; mean ± Standard Deviation
pIC50: −log10 of the molar value.
Readout type: pIC50

[a] CCNC(=O)c1ccc(-c2cc3cccc(-c4nn(C)c5c4CN(C)C(=O)CC5)c3cn2)cn1 [Example 2]
[b] CNC(=O)c1ccc(-c2cc3cccc(-c4nn(C)c5c4CN(C)C(=O)CC5)c3cn2)cn1 [Example 1]
Pick one: a or b . Which one has the lower reported pIC50? Let me know the label of the one you choose.
a
(a: 4.93, b: 5.25)

----------
Experimental target: BRD4 (BD2) (Homo sapiens)
Construct: BRD4 (Bromodomain 1 (BD1) and Bromodomain 2 (BD2))
Protocol summary: BromoKdELECT platform assay, BRD4 (BD2)
Experimental conditions: 11 points dose-response, mean from a duplicate experiment
Text: The purpose of this assay is to evaluate the in vitro target engagement and selectivity (https://www.discoverx.com/services/drug-discovery-development-services/epigenetic-profiling/bromoscan-epigenetic-profiling/bromokdelect). Assay measurement is based on the amount of bromodomain captured in test and control samples by using quantitative PCR technology that detects the DNA label associated to bromodomain. […]
pKd: −log10 of the molar value.
Readout type: pKd

compound=CNC(=O)c1ccc(-c2cc3cccc(-c4nn(C)c5c4CN(C)C(=O)CC5)c3cn2)cn1 observed_result=5.17
compound=CCNC(=O)c1ccc(-c2cc3cccc(-c4nn(C)c5c4CN(C)C(=O)CC5)c3cn2)cn1 observed_result=5.17

----------
Experimental target: BRD4 (BD1) (Homo sapiens, UniProt O60885)
Construct: BRD4 (Bromodomain 1 (BD1) and Bromodomain 2 (BD2))
Protocol summary: BromoKdELECT platform assay, BRD4 (BD1)
Experimental conditions: 11 points dose-response, mean from a duplicate experiment
pKd: −log10 of the molar value.
Readout type: pKd

compound=CCNC(=O)c1ccc(-c2cc3cccc(-c4nn(C)c5c4CN(C)C(=O)CC5)c3cn2)cn1 observed_result=5.58
compound=CNC(=O)c1ccc(-c2cc3cccc(-c4nn(C)c5c4CN(C)C(=O)CC5)c3cn2)cn1 observed_result=5.70
